Provenance of the data: patent US20220017630A1

Biological target: T1, human TNFR2 on the cell surface (CHO-TNFR2 cells; human Treg cells) (human, UniProt P20333 23-461)
T1 construct: whole, on cells; The assay field of each row says which cells; also called TNFR2-CHO cell; TNFR2 on Treg cells
T1 sequence (looked up): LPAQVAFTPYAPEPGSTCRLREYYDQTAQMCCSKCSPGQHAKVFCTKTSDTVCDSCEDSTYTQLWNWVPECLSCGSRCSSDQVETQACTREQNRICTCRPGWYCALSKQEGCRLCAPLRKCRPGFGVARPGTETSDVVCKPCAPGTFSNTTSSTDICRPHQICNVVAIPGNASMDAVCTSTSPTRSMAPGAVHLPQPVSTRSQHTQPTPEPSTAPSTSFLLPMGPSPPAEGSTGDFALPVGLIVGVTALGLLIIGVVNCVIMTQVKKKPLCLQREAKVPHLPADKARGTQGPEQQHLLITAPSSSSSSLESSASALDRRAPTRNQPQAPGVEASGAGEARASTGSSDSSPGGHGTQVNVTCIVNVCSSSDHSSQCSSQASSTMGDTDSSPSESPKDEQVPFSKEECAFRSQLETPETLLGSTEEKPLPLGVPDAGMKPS
Experiment: flow cytometry, blocking of TNFα-biotin on CHO-TNFR2 cells; against 002#
Exercise: for every item that follows, state its recorded IC50 Relative Value %.
One number for each entry, in %.

For orientation, consider the following solved cases.
TNFR2 antibody #001 (antibody, V domains shown, also called antibody #1) VH: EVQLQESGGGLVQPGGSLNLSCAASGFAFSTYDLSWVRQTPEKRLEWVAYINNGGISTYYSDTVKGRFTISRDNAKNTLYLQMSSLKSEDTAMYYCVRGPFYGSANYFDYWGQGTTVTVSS VL: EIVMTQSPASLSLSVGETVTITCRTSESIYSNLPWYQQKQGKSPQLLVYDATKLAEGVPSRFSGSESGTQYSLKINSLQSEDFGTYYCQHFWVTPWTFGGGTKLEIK; 65.6
TNFR2 antibody #395 (antibody, V domains shown) VH: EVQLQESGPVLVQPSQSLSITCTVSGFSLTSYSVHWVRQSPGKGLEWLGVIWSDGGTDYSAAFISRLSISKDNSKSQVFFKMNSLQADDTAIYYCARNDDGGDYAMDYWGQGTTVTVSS VL: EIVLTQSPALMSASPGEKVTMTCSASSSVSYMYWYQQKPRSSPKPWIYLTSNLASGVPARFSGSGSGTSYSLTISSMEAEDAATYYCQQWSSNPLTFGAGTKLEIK; 270

Here is another binder to look at.
Lab note: TNFR2 antibody #226 (antibody, V domains shown) VH: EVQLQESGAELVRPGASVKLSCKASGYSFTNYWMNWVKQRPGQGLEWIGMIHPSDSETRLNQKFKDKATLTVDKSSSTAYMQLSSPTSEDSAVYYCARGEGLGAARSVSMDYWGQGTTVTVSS VL: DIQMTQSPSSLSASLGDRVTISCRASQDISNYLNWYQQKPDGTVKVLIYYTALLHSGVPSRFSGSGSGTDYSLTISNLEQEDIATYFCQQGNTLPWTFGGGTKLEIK gave IC50 Relative Value % of 129
